B1: library; numbered along this chain (parent)
chain: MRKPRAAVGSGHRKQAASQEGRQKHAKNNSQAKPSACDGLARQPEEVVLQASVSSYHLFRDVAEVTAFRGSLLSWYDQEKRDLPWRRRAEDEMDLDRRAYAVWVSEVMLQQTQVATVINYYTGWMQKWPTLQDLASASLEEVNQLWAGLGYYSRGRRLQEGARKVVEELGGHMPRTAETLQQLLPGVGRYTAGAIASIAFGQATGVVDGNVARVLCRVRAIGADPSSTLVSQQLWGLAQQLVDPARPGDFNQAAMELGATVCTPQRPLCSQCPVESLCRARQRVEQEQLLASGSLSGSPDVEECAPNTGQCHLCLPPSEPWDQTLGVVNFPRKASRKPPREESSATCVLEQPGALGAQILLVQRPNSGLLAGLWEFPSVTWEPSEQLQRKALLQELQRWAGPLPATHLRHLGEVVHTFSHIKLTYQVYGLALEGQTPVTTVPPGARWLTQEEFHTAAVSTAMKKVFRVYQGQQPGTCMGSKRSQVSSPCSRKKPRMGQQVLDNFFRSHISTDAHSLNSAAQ

# Variants of: B1
# assay_text: 8OG:A repair function score (normalized; synonymous = 0, nonsense = -1) (normalized log-likelihood score); higher = more repair activity (WT-like);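 also: cells sorted at 72 h after reporter transfection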
# condition_label: with 8OG:A DNA repair reporter (GFP) in HEK-293 MUTYH KO cells
Classification by 8OG:A repair function score | ranges: low interval (below -0.3), middle interval (-0.3 to below -0.06), high interval (-0.06 or more)

# input Lab note: sort V485A into the matching 8OG:A repair function score band.
# output high interval

# input Lookup L180V
# output low interval

# input Lookup L295K
# output high interval

# input Lookup D61C
# output high interval

# input Lookup R42D
# output high interval

# input Lookup C272R
# output low interval

# input Lookup F466I
# output low interval

# input Lookup A254Y
# output low interval

# input Lookup L432Q
# output low interval

# input Lookup E452D
# output middle interval

# input Lookup S318L
# output middle interval

# input Lookup S54D
# output high interval

# input Lookup L158P
# output low interval

# input Lookup G171F
# output low interval

# input Lookup K3F
# output high interval

# input Lookup C489L
# output high interval

# input Lookup A259N
# output middle interval

# input Lookup Q233S
# output high interval

# input Lookup L361A
# output middle interval

# input Lookup S486E
# output high interval

# input Lookup H420A
# output middle interval

# input Lookup V274W
# output middle interval

# input Lookup Q386D
# output middle interval

# input Lookup Q239H
# output high interval

# input Lookup Y425S
# output low interval

# input Lookup V485G
# output high interval

# input Lookup A461L
# output high interval

# input Lookup P352T
# output high interval

# input Lookup G368H
# output middle interval

# input Lookup G293Y
# output middle interval

# input Lookup P437N
# output middle interval

# input Lookup A203S
# output middle interval

# input Lookup L277A
# output middle interval

# input Lookup A391D
# output low interval

# input Lookup P273T
# output low interval

# input Lookup D208A
# output low interval

# input Lookup S344K
# output high interval

# input Lookup S226C
# output middle interval

# input Lookup V301S
# output low interval

# input Lookup T380K
# output high interval

# input Lookup E382K
# output middle interval

# input Lookup N251E
# output low interval

# input Lookup V211K
# output low interval

# input Lookup Q323H
# output middle interval

The values you see were collected from the supplement of paper PMC11908140.
